Data provenance: paper PMC5216056

Target: hABHD12 (Homo sapiens)
Construct: expressed in transfected cells
Sequence (Q8N2K0 whole entry): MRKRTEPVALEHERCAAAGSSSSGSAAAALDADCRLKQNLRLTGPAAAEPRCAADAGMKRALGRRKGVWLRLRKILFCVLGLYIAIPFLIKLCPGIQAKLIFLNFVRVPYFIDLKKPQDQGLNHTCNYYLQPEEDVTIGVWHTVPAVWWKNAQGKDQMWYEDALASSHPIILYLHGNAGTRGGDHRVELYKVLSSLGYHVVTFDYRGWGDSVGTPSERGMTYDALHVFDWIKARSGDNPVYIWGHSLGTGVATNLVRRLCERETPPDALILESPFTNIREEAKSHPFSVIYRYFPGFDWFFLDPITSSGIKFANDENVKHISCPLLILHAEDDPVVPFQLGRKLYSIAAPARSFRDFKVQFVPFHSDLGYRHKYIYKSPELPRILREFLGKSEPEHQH
Experiment: ABHD12 activity
Assay type: biochemical
Settings: single point, 10 5 µM [sic]
Experimental: HEK293T cells were obtained from American Type Culture Collection (ATCC, Manassas, VA, USA). Lipofectamine 2000 was obtained from Life Technologies (Carlsbad, CA, USA) and geneticin from InvivoGen. […] The effect of CB2R ligands on ABHD6 and ABHD12 hydrolytic activity was determined using cell homogenate from hABHD6 and hABHD12 overexpressing HEK293T cells (40 μg total protein per condition). […]
In this section we review reported ABHD12 % inhibition values for a set of compounds.

Before answering, review these 3 worked examples.
>  <compound>
CCCCCCC(C)(C)c1cc(OC)c(C2=C[C@H]3CC[C@]2(CO)C3(C)C)c(OC)c1 [HU910]

>  <target_or_system>
hABHD12 (Homo sapiens)

>  <ABHD12 % inhibition>
< 25%

$$$$
>  <compound>
COc1ccc(C(=O)c2c(C)n(CCN3CCOCC3)c3cc(I)ccc23)cc1 [AM630]

>  <target_or_system>
hABHD12 (Homo sapiens)

>  <ABHD12 % inhibition>
< 25%

$$$$
>  <compound>
CN1CCCC[C@@H]1Cn1cc(C(=O)c2cc([N+](=O)[O-])ccc2I)c2ccccc21 [(R)-AM1241]

>  <target_or_system>
hABHD12 (Homo sapiens)

>  <ABHD12 % inhibition>
< 25%

$$$$

Qu. Given Cc1c(C(=O)c2cccc3ccccc23)c2cccc3c2n1[C@H](CN1CCOCC1)CO3 [WIN55212-2] , state its recorded ABHD12 % inhibition.
Ans. < 50%

Qu. Need ABHD12 % inhibition, item CN1CCCC[C@H]1Cn1cc(C(=O)c2cc([N+](=O)[O-])ccc2I)c2ccccc21 [(S)-AM1241]
Ans. < 25%

###

Tested on: Na+ channel (site 2)
Format: binding
Conditions: 10 µM
Entry flag: 1 (yes) if % inhibition Na+ channel (site 2) reaches 70%; 0 (no) if it does not.

>  <compound>
CCCCCCC(C)(C)c1cc(OC)c(C2=C[C@H]3CC[C@]2(CO)C3(C)C)c(OC)c1

>  <category_label>
0 (no)

$$$$
>  <compound>
CCCn1c(C)c(C(=O)c2cccc3ccccc23)c2ccccc21

>  <category_label>
0 (no)

$$$$
>  <compound>
Cc1ccc2c(c1)Cc1c(C(=O)NN3CCCCC3)nn(-c3ccc(Cl)cc3Cl)c1-2

>  <category_label>
0 (no)

$$$$

Qu. Form field: % inhibition Na+ channel (site 2) at least 70%? Entry: `CCCCCCC(C)(C)c1cc(OC)c([C@@H]2C=C(CO)[C@@H]3C[C@H]2C3(C)C)c(OC)c1`
Ans. 0 (no)

Qu. Test whether the compound CN1CCCC[C@H]1Cn1cc(C(=O)c2cc([N+](=O)[O-])ccc2I)c2ccccc21 [(S)-AM1241] records % inhibition Na+ channel (site 2) of 70% or higher.
Ans. 1 (yes)

Qu. Decide: is the reported value of % inhibition Na+ channel (site 2) for `CCCC(C)(C)c1ccc2c(c1)OC(C)(C)[C@@H]1CC=C(C)C[C@@H]21` equal to or greater than 70%?
Ans. 0 (no)

###

Recorded IC50 for the following compounds
Molecular target: Rat recombinant TRPV3 (Rattus norvegicus, UniProt Q4QYD9)
Sequence (Q4QYD9 1-791): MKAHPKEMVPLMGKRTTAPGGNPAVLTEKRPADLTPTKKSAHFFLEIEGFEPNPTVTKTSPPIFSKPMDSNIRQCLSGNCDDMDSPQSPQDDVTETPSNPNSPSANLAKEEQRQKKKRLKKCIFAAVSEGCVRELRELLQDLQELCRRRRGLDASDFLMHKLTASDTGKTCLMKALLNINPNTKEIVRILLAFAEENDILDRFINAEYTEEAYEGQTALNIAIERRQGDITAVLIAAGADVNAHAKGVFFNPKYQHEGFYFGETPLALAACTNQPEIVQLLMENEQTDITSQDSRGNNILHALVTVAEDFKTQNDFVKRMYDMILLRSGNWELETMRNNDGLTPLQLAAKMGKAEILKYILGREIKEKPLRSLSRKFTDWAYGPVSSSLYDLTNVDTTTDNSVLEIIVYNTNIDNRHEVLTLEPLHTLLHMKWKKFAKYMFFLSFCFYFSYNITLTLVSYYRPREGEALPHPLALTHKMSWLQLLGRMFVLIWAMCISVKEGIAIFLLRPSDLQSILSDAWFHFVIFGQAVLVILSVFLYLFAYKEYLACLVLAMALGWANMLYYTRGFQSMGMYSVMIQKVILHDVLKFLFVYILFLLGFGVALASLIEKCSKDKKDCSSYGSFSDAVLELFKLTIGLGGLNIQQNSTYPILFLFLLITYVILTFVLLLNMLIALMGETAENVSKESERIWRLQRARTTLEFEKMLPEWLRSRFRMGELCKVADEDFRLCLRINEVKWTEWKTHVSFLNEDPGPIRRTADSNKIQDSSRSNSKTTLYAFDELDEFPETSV
Experiment: cell-based
Details: vs thymol 100μM; read-out: TRPV3 IC50 for antagonism or desensitization
Field: numeric (µM). Do not append units.

Please review the entries below; each comes with its answer.
>  <compound>
Cc1ccc2c(c1)Cc1c(C(=O)NN3CCCCC3)nn(-c3ccc(Cl)cc3Cl)c1-2 [Gp-1a]

>  <measure_unit>
µM

>  <IC50>
22.6

$$$$
>  <compound>
CCCCCCC(C)(C)c1cc(OC)c(C2=C[C@H]3CC[C@]2(CO)C3(C)C)c(OC)c1 [HU910]

>  <measure_unit>
µM

>  <IC50>
12.9

$$$$
>  <compound>
CCCC(C)(C)c1ccc2c(c1)OC(C)(C)[C@@H]1CC=C(C)C[C@@H]21 [JWH133]

>  <measure_unit>
µM

>  <IC50>
80.6

$$$$

Turning to the following compound.
Qu. // returns reported IC50 for input Cc1c(C(=O)NN2CCCCC2)nn(-c2ccc(Cl)cc2Cl)c1-c1ccc(Cl)cc1 [SR141716A]
Ans. 3.4
